These measurements were taken from ChEMBL document CHEMBL3232809.

System: Staphylococcus aureus
Experimental Protocol: Antimicrobial activity against methicillin-sensitive Staphylococcus aureus ATCC 13709
Format: functional
Observation Type: MIC

INSERT INTO results (compound, test_value) VALUES
  ('C/C(NCCOc1ccccc1)=C1/C(=O)[C@@H]2CO[C@@H](C(C)(C)C)N2C1=O', '> 32 µg/mL'),
  ('C/C(NCCOc1ccccc1)=C1\C(=O)N2[C@H](C(C)(C)C)OC[C@@]2(C)C1=O (racemic)', '8 µg/mL'),
  ('COC(=O)[C@@]12CO[C@@H](C(C)(C)C)N1C(=O)/C(=C(\C)NC13CC4CC(CC(C4)C1)C3)C2=O', '> 64 µg/mL'),
  ('CSCCC1C(=O)/C(=C(\CC23CC4CC(C)(CC(C)(C4)C2)C3)NCC(C)(C)CN(C)C)C(=O)N1C(C)=O (centres undefined)', '> 64 µg/mL'),
  ('CCCCCC/C(=C1/C(=O)N2[C@@H](C(C)(C)C)OC[C@]2(C(=O)OC)C1=O)N1CCCCC1', '> 32 µg/mL'),
  ('CCN(CC)CCCC(C)N/C(CCCOc1ccccc1)=C1/C(=O)C(CC(C)C)N(C(=O)c2ccccc2)C1=O (centres undefined)', '> 32 µg/mL'),
  ('CCOC(=O)[C@]12CO[C@H](C(C)(C)C)N1C(=O)/C(=C(/CC13CC4CC(CC(C4)C1)C3)NC(C)CCCN(CC)CC)C2=O (some centres undefined)', '32 µg/mL'),
  ('CC1CCCCN1CCCN/C(CC12CC3CC(C)(CC(C)(C3)C1)C2)=C1/C(=O)[C@@H]2CCCC(=O)N2C1=O (some centres undefined)', '> 32 µg/mL'),
  ('C/C(NCCOc1ccccc1)=C1/C(=O)[C@@H]2CCCC(=O)N2C1=O', '> 32 µg/mL');

----------
System: Enterococcus faecium
Experimental Protocol: Antimicrobial activity against vancomycin-resistant Enterococcus faecium
Assay type: functional
MIC values, listed per item
Observation Type: MIC

INSERT INTO assay_data (compound, observation_type, test_value) VALUES
  ('COC(=O)[C@]12CO[C@H](C(C)(C)C)N1C(=O)/C(=C(/CCCOc1ccccc1)NCCN1CCCCC1)C2=O', 'MIC', '> 32 µg/mL'),
  ('C/C(NC12CC3CC(CC(C3)C1)C2)=C1\C(=O)N2[C@H](C(C)(C)C)OC[C@@]2(C)C1=O (mixture of isomers)', 'MIC', '> 64 µg/mL'),
  ('CCOC(=O)[C@]12CO[C@H](C(C)(C)C)N1C(=O)/C(=C(\C)NCc1cccc(CN3CCC(C)CC3)c1)C2=O', 'MIC', '> 32 µg/mL'),
  ('CCCCCCCCCCC/C(NCCCOC(C)C)=C1\C(=O)[C@@H]2CCCC(=O)N2C1=O', 'MIC', '> 64 µg/mL'),
  ('O=C1CNC(=O)/C1=C(\NC1CCCCC1)c1cccc2ccccc12', 'MIC', '> 32 µg/mL'),
  ('CCCCCCN/C(=C1/C(=O)CNC1=O)c1ccccc1', 'MIC', '> 32 µg/mL'),
  ('CSCCC1C(=O)/C(=C(\CC23CC4CC(CC(C4)C2)C3)NCC(C)(C)CN(C)C)C(=O)N1C(C)=O (configuration not stated)', 'MIC', '> 32 µg/mL'),
  ('CCOC(=O)[C@]12CO[C@H](C(C)(C)C)N1C(=O)/C(=C(\C)NCc1ccc(C)o1)C2=O', 'MIC', '> 32 µg/mL'),
  ('CCCCCCCCCCC/C(Nc1ccc(N)cc1)=C1\C(=O)CN(CCCCCC)C1=O', 'MIC', '> 32 µg/mL'),
  ('O=C(O)c1cn(C2CC2)c2cc(N3CCNCC3)c(F)cc2c1=O', 'MIC', '32 µg/mL'),
  ('C/C(NCCOc1ccccc1)=C1\C(=O)N2[C@H](C(C)(C)C)OC[C@@]2(C)C1=O (racemic)', 'MIC', '1 µg/mL'),
  ('C/C(Nc1ccccc1)=C1\C(=O)N2[C@H](C(C)(C)C)OC[C@@]2(C)C1=O (racemic)', 'MIC', '32 µg/mL');

----------
# reported MIC; entries follow
System: Streptococcus pneumoniae
Experimental Protocol: Antimicrobial activity against penicillin- and erythromycin-resistant Streptococcus pneumoniae
Type: functional
Observation Type: MIC

INSERT INTO assay_data (molecule, test_value) VALUES
  ('CC(C)(C)[C@H]1OC[C@@H]2C(=O)/C(=C(/NCCCCN)c3ccccc3)C(=O)N21', '> 32 mg/L'),
  ('CCCCCC/C(Nc1ccc(N2CCOCC2)cc1)=C1\C(=O)CNC1=O', '> 32 mg/L'),
  ('CCOC(=O)[C@]12CO[C@H](C(C)(C)C)N1C(=O)/C(=C(/CC13CC4CC(CC(C4)C1)C3)NCCCN1CCOCC1)C2=O', '> 64 mg/L'),
  ('C/C(NCCOc1ccccc1Cl)=C1/C(=O)[C@@H]2CCCC(=O)N2C1=O', '> 32 mg/L'),
  ('COCCOC(=O)[C@]12CO[C@H](C(C)(C)C)N1C(=O)/C(=C(\C)NCCOc1ccccc1)C2=O', '> 32 mg/L');

----------
Test system: Haemophilus influenzae
Experimental Protocol: Antimicrobial activity against Haemophilus influenzae ATCC 31517 MMSA
Assay type: functional
Observation Type: MIC

INSERT INTO measurements (compound, observation_type, test_value) VALUES
  ('C/C(Nc1ccccc1)=C1\C(=O)N2[C@H](C(C)(C)C)OC[C@@]2(C)C1=O (racemic)', 'MIC', '> 64 µg/mL'),
  ('CCOC(=O)[C@]12CO[C@H](C(C)(C)C)N1C(=O)/C(=C(/CC13CC4CC(CC(C4)C1)C3)NCCCN1CCOCC1)C2=O', 'MIC', '> 64 µg/mL'),
  ('C/C(NCCOc1ccccc1Cl)=C1/C(=O)CNC1=O', 'MIC', '> 32 µg/mL'),
  ('CCCCCCCCCCCCC/C(NCCCNC(=O)COCC(=O)O)=C1\C(=O)CN(CCCCCC)C1=O', 'MIC', '> 64 µg/mL'),
  ('CCCCCCCCCN/C(C)=C1/C(=O)N2[C@@H](C(C)(C)C)OC[C@]2(C(=O)OC)C1=O', 'MIC', '> 32 µg/mL');

----------
Tested on: Haemophilus influenzae
Experimental Protocol: Antimicrobial activity against LS2 Efflux knock-out Haemophilus influenzae
Assay type: functional
# MIC values compiled below
Observation Type: MIC (µg/mL)

INSERT INTO measurements (molecule, observation_type, value_relation_sign, test_value) VALUES
  ('COCCOC(=O)[C@]12CO[C@H](C(C)(C)C)N1C(=O)/C(=C(\C)NCCOc1ccccc1)C2=O', 'MIC', '>', 32),
  ('CSCCC1C(=O)/C(=C(\CC23CC4CC(C)(CC(C)(C4)C2)C3)NCC(C)(C)CN(C)C)C(=O)N1C(C)=O (centres undefined)', 'MIC', '=', 4),
  ('CCOC(=O)[C@]12CO[C@H](C(C)(C)C)N1C(=O)/C(=C(/CC(F)(F)C(F)(F)C(F)(F)C(F)(F)C(F)(F)F)NCCCN1CCOCC1)C2=O', 'MIC', '=', 8),
  ('C/C(NCCOc1ccccc1)=C1\C(=O)N2[C@H](C(C)(C)C)OC[C@@]2(C)C1=O (racemic)', 'MIC', '<', 0.06);

----------
Test system: Staphylococcus aureus
Experimental Protocol: Antimicrobial activity against Staphylococcus aureus Oxford
Type: functional
# MIC listing for each entry below
Observation Type: MIC

INSERT INTO measurements (molecule, test_system, observation_type, test_value) VALUES
  ('CCOC(=O)[C@]12CO[C@H](C(C)(C)C)N1C(=O)/C(=C(/CC13CC4CC(C)(CC(C)(C4)C1)C3)NC(C)CCCN(CC)CC)C2=O (some centres not stated)', 'Staphylococcus aureus', 'MIC', '> 32 µg/mL'),
  ('CCCC(=O)N1CC(=O)/C(=C(\CC23CC4CC(CC(C4)C2)C3)NCCCN2CCOCC2)C1=O', 'Staphylococcus aureus', 'MIC', '> 64 µg/mL'),
  ('CCOC(=O)[C@]12CO[C@H](C(C)(C)C)N1C(=O)/C(=C(/CC(F)(F)C(F)(F)C(F)(F)C(F)(F)C(F)(F)F)NCCCN1CCOCC1)C2=O', 'Staphylococcus aureus', 'MIC', '16 µg/mL'),
  ('CCN(CC)CCCC(C)N/C(CCCOc1ccccc1)=C1/C(=O)C(CC(C)C)N(C(=O)c2ccccc2)C1=O (configuration not stated)', 'Staphylococcus aureus', 'MIC', '> 32 µg/mL'),
  ('CSCCC1C(=O)/C(=C(\CC23CC4CC(C)(CC(C)(C4)C2)C3)NCC(C)(C)CN(C)C)C(=O)N1C(C)=O (configuration not stated)', 'Staphylococcus aureus', 'MIC', '> 64 µg/mL'),
  ('COC(=O)[C@@]12CO[C@@H](C(C)(C)C)N1C(=O)/C(=C(\C)NC13CC4CC(CC(C4)C1)C3)C2=O', 'Staphylococcus aureus', 'MIC', '> 64 µg/mL'),
  ('CCOC(=O)[C@]12CO[C@H](C(C)(C)C)N1C(=O)/C(=C(\C)NCc1ccc(C)o1)C2=O', 'Staphylococcus aureus', 'MIC', '> 32 µg/mL'),
  ('CCOC(=O)[C@]12CO[C@H](C(C)(C)C)N1C(=O)/C(=C(\C)NCCCN1CCOCC1)C2=O', 'Staphylococcus aureus', 'MIC', '> 32 µg/mL'),
  ('CCCCCCN1CC(=O)/C(=C(/NC2CCCCC2)C2CCCCC2)C1=O', 'Staphylococcus aureus', 'MIC', '> 64 µg/mL'),
  ('CCOC(=O)[C@]12CO[C@H](C(C)(C)C)N1C(=O)/C(=C(\C)NCCOc1ccccc1)C2=O', 'Staphylococcus aureus', 'MIC', '> 64 µg/mL'),
  ('CCOC(=O)[C@]12CO[C@H](C(C)(C)C)N1C(=O)/C(=C(/CC13CC4CC(CC(C4)C1)C3)NCCCN1CCOCC1)C2=O', 'Staphylococcus aureus', 'MIC', '> 64 µg/mL'),
  ('CCCCCC/C(Nc1ccc(N2CCOCC2)cc1)=C1\C(=O)CNC1=O', 'Staphylococcus aureus', 'MIC', '> 32 µg/mL'),
  ('C/C(NCCOc1ccccc1Cl)=C1/C(=O)CN(C(=O)OC(C)(C)C)C1=O', 'Staphylococcus aureus', 'MIC', '> 64 µg/mL'),
  ('COC(=O)[C@@]12CO[C@@H](C(C)(C)C)N1C(=O)/C(=C(\C)NCC1CCC3CC1C3(C)C)C2=O (some centres not stated)', 'Staphylococcus aureus', 'MIC', '> 32 µg/mL'),
  ('CC(C)(C)[C@H]1OC[C@@H]2C(=O)/C(=C(/NCCCCN)c3ccccc3)C(=O)N21', 'Staphylococcus aureus', 'MIC', '> 32 µg/mL'),
  ('O=C1CNC(=O)/C1=C(\NC1CCCCC1)c1cccc2ccccc12', 'Staphylococcus aureus', 'MIC', '> 32 µg/mL'),
  ('CCOC(=O)[C@]12CO[C@H](C(C)(C)C)N1C(=O)/C(=C(\C)NCc1cccc(CN3CCC(C)CC3)c1)C2=O', 'Staphylococcus aureus', 'MIC', '> 32 µg/mL'),
  ('C/C(Nc1ccccc1)=C1\C(=O)N2[C@H](C(C)(C)C)OC[C@@]2(C)C1=O (racemic)', 'Staphylococcus aureus', 'MIC', '64 µg/mL'),
  ('CCCCCCCCCCCCC/C(NCCCNC(=O)COCC(=O)O)=C1\C(=O)CN(CCCCCC)C1=O', 'Staphylococcus aureus', 'MIC', '> 64 µg/mL'),
  ('COC(=O)[C@]12CO[C@H](C(C)(C)C)N1C(=O)/C(=C(/CCCOc1ccccc1)NCCN1CCCCC1)C2=O', 'Staphylococcus aureus', 'MIC', '> 32 µg/mL'),
  ('COC(=O)[C@]12CO[C@H](C(C)(C)C)N1C(=O)/C(=C(/CCCOc1ccccc1)NCCCOC(C)C)C2=O', 'Staphylococcus aureus', 'MIC', '> 32 µg/mL'),
  ('CCCCCCCCCCCCC/C(Nc1ccccc1)=C1\C(=O)CNC1=O', 'Staphylococcus aureus', 'MIC', '> 32 µg/mL'),
  ('O=C1CNC(=O)/C1=C(\NCc1ccccc1)c1cccc2ccccc12', 'Staphylococcus aureus', 'MIC', '> 32 µg/mL'),
  ('CCOC(=O)[C@]12CO[C@H](C(C)(C)C)N1C(=O)/C(=C(/CC13CC4CC(CC(C4)C1)C3)NC(C)CCCN(CC)CC)C2=O (some centres not stated)', 'Staphylococcus aureus', 'MIC', '32 µg/mL'),
  ('C/C(NCCOc1ccccc1)=C1\C(=O)N2[C@H](C(C)(C)C)OC[C@@]2(C)C1=O (racemic)', 'Staphylococcus aureus', 'MIC', '8 µg/mL'),
  ('CC1CCCCN1CCCN/C(CC12CC3CC(C)(CC(C)(C3)C1)C2)=C1/C(=O)[C@@H]2CCCC(=O)N2C1=O (some centres not stated)', 'Staphylococcus aureus', 'MIC', '> 32 µg/mL'),
  ('CCCCCCCCCCCCC/C(NCCCN)=C1\C(=O)CN(CCCCCC)C1=O', 'Staphylococcus aureus', 'MIC', '4 µg/mL');
